- assayed-system: T1, mouse tissue factor pathway inhibitor (TFPI) (mouse, UniProt O54819 29-289, limits assumed)
- T1 construct: bought; also called mTFPI; murine TFPI
- T1 sequence (looked up): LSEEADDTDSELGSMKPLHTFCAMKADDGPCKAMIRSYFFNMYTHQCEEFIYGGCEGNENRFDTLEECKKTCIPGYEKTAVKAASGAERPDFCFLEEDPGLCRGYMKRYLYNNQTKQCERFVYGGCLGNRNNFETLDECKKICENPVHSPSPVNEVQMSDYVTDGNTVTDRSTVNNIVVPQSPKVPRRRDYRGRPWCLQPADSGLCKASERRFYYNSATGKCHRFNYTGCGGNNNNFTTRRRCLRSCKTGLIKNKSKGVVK
- method-description: competitive ELISA
readout-label: variant/HC_K99L (ratio)
Give bare numbers, in ratio.

>>> reported("2A8 HC S35D+K99L/LC Y48F+D91L+G93S+V96W (Fab, V domains shown) VH: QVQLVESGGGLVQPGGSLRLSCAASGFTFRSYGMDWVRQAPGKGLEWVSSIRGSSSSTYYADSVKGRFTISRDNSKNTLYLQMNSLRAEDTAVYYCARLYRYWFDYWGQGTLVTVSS VL: DIELTQPPSVSVAPGQTARISCSGDNLRNYYAHWYQQKPGQAPVVVIFYDNNRPSGIPERFSGSNSGNTATLTISGTQAEDEADYYCQSWLDSVPWFGGGTKLTVLG")
15.6

Attention now shifts to the item below.
Assign variant/HC_K99L to the following record: 2A8 HC S35D+S55R+K99L/LC Y48F+N51V+S89A+D91W (Fab, V domains shown) VH: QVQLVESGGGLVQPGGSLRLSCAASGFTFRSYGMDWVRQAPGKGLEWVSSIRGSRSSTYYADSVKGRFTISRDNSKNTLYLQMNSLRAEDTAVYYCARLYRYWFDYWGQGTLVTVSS VL: DIELTQPPSVSVAPGQTARISCSGDNLRNYYAHWYQQKPGQAPVVVIFYDVNRPSGIPERFSGSNSGNTATLTISGTQAEDEADYYCQAWWDGVPVFGGGTKLTVLG
18.2
